# study_target: T1, human Nectin-4 extracellular antigen hNectin-4-His (human, UniProt Q96NY8 32-349)
# T1 construct: C-terminal 8xHis tag included
# T1 sequence: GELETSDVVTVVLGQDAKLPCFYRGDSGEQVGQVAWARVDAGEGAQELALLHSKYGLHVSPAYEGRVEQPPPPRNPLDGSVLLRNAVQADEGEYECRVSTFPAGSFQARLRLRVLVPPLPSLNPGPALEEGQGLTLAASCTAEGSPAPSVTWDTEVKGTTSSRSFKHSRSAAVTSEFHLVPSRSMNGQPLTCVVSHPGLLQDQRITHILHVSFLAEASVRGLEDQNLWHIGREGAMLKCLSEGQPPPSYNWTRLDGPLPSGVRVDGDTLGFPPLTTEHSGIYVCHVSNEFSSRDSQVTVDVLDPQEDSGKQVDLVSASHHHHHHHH
# assay_method_text: SPR, antibody on Protein A chip, 1:1 fit
A collection of binders and their measured Kd

| binder | unit | Kd |
| --- | --- | --- |
| antibody 1F3-1B1 (antibody, human IgG1, kappa, V domains shown) VH: EVQLVESGGGLVQPGGSLRLSCAASGFTFGTYGMSWVRQAPGKGLEWVSGIKPGDSTTYYADSVKGRFTISRDNSKNTLYLQMNSLRAEDTAVYYCARAELLAFDVYTASDYWGQGTLVTVSS VL: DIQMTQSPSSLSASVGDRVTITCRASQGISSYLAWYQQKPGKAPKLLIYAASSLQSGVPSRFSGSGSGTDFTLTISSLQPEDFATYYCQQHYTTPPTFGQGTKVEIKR | nM | 0.17 |
| antibody 10F4-3 (antibody, human IgG1, kappa, V domains shown) VH: EVQLVESGGGLVQPGGSLRLSCAASGFSFGDFAMSWVRQAPGKGLEWVSVIDGHTAYNSYADSVKGRFTISRDNSKNTLYLQMNSLRAEDTAVYYCAREYSDVVDYVSVRTPLDYWGQGTLVTVSS VL: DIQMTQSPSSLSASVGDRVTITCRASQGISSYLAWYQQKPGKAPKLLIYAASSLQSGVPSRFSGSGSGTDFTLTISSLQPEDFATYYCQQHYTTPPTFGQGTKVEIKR | nM | 0.352 |
